Dear all, this message contains CC50 results, target or system SK-MEL-5.
Answer with a number only, understood to be in µM.

Data request: Lookup: CC50 / SK-MEL-5 / C=C1C(=O)O[C@H]2[C@H]1CC/C(COC(=O)N1CCN(C)CC1)=C\CC[C@@]1(C)O[C@@H]21 [JVM 2-44]
Data returned: 58.7

Data request: What CC50 appears in the records for this compound with SK-MEL-5? C=C1C(=O)O[C@H]2[C@H]1CC/C(COC(=O)NCCN1CCCCC1)=C\CC[C@@]1(C)O[C@@H]21 [JVM 2-13]
Data returned: 58.3

Data request: Provide the documented CC50 with SK-MEL-5 as the system for C=C1C(=O)O[C@H]2[C@H]1CC/C(COC(=O)NC)=C\CC[C@@]1(C)O[C@@H]21 [JVM 2-57]
Data returned: 66

Data request: Could you share what CC50 was measured for C=C1C(=O)O[C@H]2[C@H]1CC/C(COC(=O)CCC(=O)N1CCC(C)CC1)=C\CC[C@@]1(C)O[C@@H]21 [JVM 2-70] , tested on SK-MEL-5?
Data returned: 47.8

Data request: Request - read-out CC50 | tested on SK-MEL-5 | compound C=C1C(=O)O[C@H]2[C@H]1CC/C(COC(=O)N1CCC(F)(F)CC1)=C\CC[C@@]1(C)O[C@@H]21 [JVM 2-66]
Data returned: 40.3

###

system: HOP-62; assay: panel of 60 human tumor cell lines, growth inhibition (Non-Small Cell Lung Cancer); details: Homo sapiens, HOP-62, read-out: LC50
quantity.measured: CC50

Worked examples, 2 compounds total:
compound_smiles=C=C1C(=O)O[C@H]2[C@H]1CC/C(COC(=O)NCCN1CCOCC1)=C\CC[C@@]1(C)O[C@@H]21 quantity_measured=CC50 result="> 100 µM"
compound_smiles=C=C1C(=O)O[C@H]2[C@H]1CC/C(COC(=O)OCCN(C)C)=C\CC[C@@]1(C)O[C@@H]21 quantity_measured=CC50 result="> 100 µM"

Data request: Reported CC50 for HOP-62, given "C=C1C(=O)O[C@H]2[C@H]1CC/C(COC(=S)n1ccnc1)=C\CC[C@@]1(C)O[C@@H]21" ?
Data returned: > 100 µM

###

Measured CC50 on 786-0 follows.
Hi! Could you send only the number? It should be in µM, unit omitted.

molecule="C=C1C(=O)O[C@H]2[C@H]1CC/C(COC(=O)NCCO)=C\\CC[C@@]1(C)O[C@@H]21 [JVM 2-50]" measured_target=786-0 readout_number=66.4
molecule="C=C1C(=O)O[C@H]2[C@H]1CC/C(COC(=O)N1CCC(F)(F)CC1)=C\\CC[C@@]1(C)O[C@@H]21 [JVM 2-66]" measured_target=786-0 readout_number=48.6
molecule="C=C1C(=O)O[C@H]2[C@H]1CC/C(COC(=O)N1CCN(C)CC1)=C\\CC[C@@]1(C)O[C@@H]21 [JVM 2-44]" measured_target=786-0 readout_number=72.3
molecule="C=C1C(=O)O[C@H]2[C@H]1CC/C(COC(=O)NC)=C\\CC[C@@]1(C)O[C@@H]21 [JVM 2-57]" measured_target=786-0 readout_number=49.6

Consider the additional molecule presented here.
Data request: Need CC50, item C=C1C(=O)O[C@H]2[C@H]1CC/C(COC(=O)NCCN1CCCCC1)=C\CC[C@@]1(C)O[C@@H]21 [JVM 2-13]
Data returned: 56.2
